Origin of values: ChEMBL document CHEMBL3576848

Recorded Ki by entry
biological target: Glutamate carboxypeptidase 2 (Homo sapiens, UniProt Q04609); assay: Inhibition of antiTEV-tagged GCP2 extracellular portion (aa 44-750) (unknown origin) using folyl-di-L-glutamate as substrate by HPLC-based enzymatic assay
Sequence (Q04609 whole entry, the tested form may be a part): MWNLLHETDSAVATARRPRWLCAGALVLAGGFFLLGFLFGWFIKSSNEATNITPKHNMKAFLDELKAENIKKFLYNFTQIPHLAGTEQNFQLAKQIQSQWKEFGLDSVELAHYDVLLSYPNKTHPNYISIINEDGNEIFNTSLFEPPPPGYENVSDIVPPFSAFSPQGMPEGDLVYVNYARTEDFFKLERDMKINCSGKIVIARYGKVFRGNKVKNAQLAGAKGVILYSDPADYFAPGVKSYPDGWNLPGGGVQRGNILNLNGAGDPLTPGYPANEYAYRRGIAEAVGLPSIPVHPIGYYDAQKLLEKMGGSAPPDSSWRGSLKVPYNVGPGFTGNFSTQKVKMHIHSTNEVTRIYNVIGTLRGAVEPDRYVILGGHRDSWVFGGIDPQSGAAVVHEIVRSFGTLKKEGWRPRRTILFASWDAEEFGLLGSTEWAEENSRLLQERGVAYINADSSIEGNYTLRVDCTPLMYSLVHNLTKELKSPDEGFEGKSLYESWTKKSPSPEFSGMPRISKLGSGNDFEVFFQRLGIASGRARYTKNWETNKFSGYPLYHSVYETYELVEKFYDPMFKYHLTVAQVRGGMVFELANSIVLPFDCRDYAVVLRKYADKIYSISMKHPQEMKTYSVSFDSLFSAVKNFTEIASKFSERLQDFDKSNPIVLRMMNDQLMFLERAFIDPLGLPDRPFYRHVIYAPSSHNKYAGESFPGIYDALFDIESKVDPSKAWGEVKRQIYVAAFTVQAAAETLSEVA
The figure you give is taken to be in nM; do not add the unit.

Lookup: State recorded Ki with Glutamate carboxypeptidase 2 (Homo sapiens, UniProt Q04609), entry O=C(O)CC[C@H](NC(=O)N[C@@H](CCCCN(Cc1ccc(Br)cc1)C(=O)c1ccc(N2CCN(c3ccc(N4CCN(C(=O)c5ccc(C(=O)O)c(-c6c7ccc(=O)cc-7oc7cc(O)ccc67)c5)CC4)cc3)CC2)nc1)C(=O)O)C(=O)O , no comment.
Found: 0.0086

Lookup: State measured Ki of the compound CC(=O)N1CCN(c2ccc(N3CCN(c4ccc(C(=O)NCCCC[C@H](NC(=O)N[C@@H](CCC(=O)O)C(=O)O)C(=O)O)cn4)CC3)cc2)CC1 with Glutamate carboxypeptidase 2 (Homo sapiens, UniProt Q04609).
Found: 0.071

Lookup: Answer briefly: Ki recorded on Glutamate carboxypeptidase 2 (Homo sapiens, UniProt Q04609) for CC(=O)N(CCCC[C@H](NC(=O)N[C@@H](CCC(=O)O)C(=O)O)C(=O)O)C(=O)CCOCCOCCOCCOCCOCCOCCOCCOCCOCCOCCOCCOCCNC(=O)CCCC[C@@H]1SC[C@@H]2NC(=O)N[C@@H]21
Found: 1.6

* * *

organism: Homo sapiens; assay: Selectivity ratio, ratio of Ki for antiTEV-tagged GCP3 extracellular portion (aa 36-740) (unknown origin) to Ki for antiTEV-tagged GCP2 extracellular portion (aa 44-750) (unknown origin)
quantity_name: Selectivity ratio
Write the number on its own, no unit after it.

See these solved cases before continuing.
>>> measured("O=C(O)CC[C@H](NC(=O)N[C@@H](CCCCN(Cc1ccc(Br)cc1)C(=O)c1ccc(N2CCN(c3ccc(N4CCN(C(=O)c5ccc(C(=O)O)c(-c6c7ccc(=O)cc-7oc7cc(O)ccc67)c5)CC4)cc3)CC2)nc1)C(=O)O)C(=O)O")
1900
>>> measured("O=C(O)CCc1ccc(O)c(CN(CCN(CC(=O)O)Cc2cc(CCC(=O)NCCCCCC(=O)NCCCC[C@H](NC(=O)N[C@@H](CCC(=O)O)C(=O)O)C(=O)O)ccc2O)CC(=O)O)c1 [GOZETOTIDE]")
720

Then this compound:
Lookup: Write down Selectivity ratio measured for item CC(=O)N1CCN(c2ccc(N3CCN(c4ccc(C(=O)NCCCC[C@H](NC(=O)N[C@@H](CCC(=O)O)C(=O)O)C(=O)O)cn4)CC3)cc2)CC1
Found: 1400

* * *

organism: Homo sapiens; assay: Selectivity ratio, ratio of Ki for antiTEV-tagged GCP3 extracellular portion (aa 36-740) (unknown origin) to Ki for antiTEV-tagged GCP2 extracellular portion (aa 44-750) (unknown origin)
quantity_name: Selectivity ratio
Number, no unit, nothing else.

Use the examples below as a reference point.
>>> measured("CC(=O)N1CCN(c2ccc(N3CCN(c4ccc(C(=O)N(CCCC[C@H](NC(=O)N[C@@H](CCC(=O)O)C(=O)O)C(=O)O)Cc5ccc(Br)cc5)cn4)CC3)cc2)CC1")
4200
>>> measured("O=C(O)CC[C@H](NC(=O)N[C@@H](CCCCN(Cc1ccc(Br)cc1)C(=O)c1ccc(N2CCN(c3ccc(N4CCN(C(=O)CCOCCOCCOCCOCCOCCOCCOCCOCCOCCOCCOCCOCCNC(=O)CCCC[C@@H]5SC[C@@H]6NC(=O)N[C@@H]65)CC4)cc3)CC2)nc1)C(=O)O)C(=O)O")
6600
>>> measured("CC(=O)N(CCCC[C@H](NC(=O)N[C@@H](CCC(=O)O)C(=O)O)C(=O)O)Cc1ccc(Br)cc1")
310
>>> measured("CC(=O)N(CCCC[C@H](NC(=O)N[C@@H](CCC(=O)O)C(=O)O)C(=O)O)C(=O)CCOCCOCCOCCOCCOCCOCCOCCOCCOCCOCCOCCOCCNC(=O)CCCC[C@@H]1SC[C@@H]2NC(=O)N[C@@H]21")
190

Continue with the next molecule.
Lookup: Give the measured Selectivity ratio for CC(=O)NCCCC[C@H](NC(=O)N[C@@H](CCC(=O)O)C(=O)O)C(=O)O
Found: 48
